# Tested on: THRa homodimer (NR concentration 90 nM)
# testName: PBM binding z-score (relative to random genomic background probes); higher = stronger binding; sequences stand for … in GC…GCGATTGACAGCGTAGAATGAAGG
Label rule, in plain words: PBM binding z-score of 0.4 and up is True, under 0.4 is False.

[
  {
    "residues": "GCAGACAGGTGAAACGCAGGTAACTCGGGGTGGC",
    "classAssignment": "False"
  },
  {
    "residues": "CCTTACGGGTCACTCCAGGTTATAACATCGGAGT",
    "classAssignment": "True"
  },
  {
    "residues": "TTACCAAGGTGAGGGTCGTTGATCCCTCTGTAGA",
    "classAssignment": "True"
  },
  {
    "residues": "AATACAGGGTCATCGTAGGCCAGCGTACGCACAG",
    "classAssignment": "True"
  },
  {
    "residues": "CCTACTGGGCCATCAGGTAATTGATATCAACGTT",
    "classAssignment": "False"
  },
  {
    "residues": "CCTACTGGACCAAAAAGGTCATTGATGCCGATAA",
    "classAssignment": "True"
  }
]

====

# Tested on: VDR homodimer (NR concentration 270 nM)
# testName: PBM binding z-score (relative to random genomic background probes); higher = stronger binding; sequences stand for … in GC…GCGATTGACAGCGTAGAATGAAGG

[
  {
    "residues": "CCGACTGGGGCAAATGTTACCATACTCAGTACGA",
    "targetUnderTest": "VDR homodimer (NR concentration 270 nM)",
    "PBM binding z-score": -0.144
  },
  {
    "residues": "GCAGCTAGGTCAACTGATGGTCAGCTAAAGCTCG",
    "targetUnderTest": "VDR homodimer (NR concentration 270 nM)",
    "PBM binding z-score": -0.435
  },
  {
    "residues": "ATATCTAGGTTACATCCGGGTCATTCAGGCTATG",
    "targetUnderTest": "VDR homodimer (NR concentration 270 nM)",
    "PBM binding z-score": 3.63
  },
  {
    "residues": "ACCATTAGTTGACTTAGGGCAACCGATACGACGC",
    "targetUnderTest": "VDR homodimer (NR concentration 270 nM)",
    "PBM binding z-score": 0.163
  },
  {
    "residues": "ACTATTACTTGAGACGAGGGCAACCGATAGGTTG",
    "targetUnderTest": "VDR homodimer (NR concentration 270 nM)",
    "PBM binding z-score": 1.76
  },
  {
    "residues": "TCTAGTTGGTCCCGGAGGTCACACACGACGGGTA",
    "targetUnderTest": "VDR homodimer (NR concentration 270 nM)",
    "PBM binding z-score": 2.67
  },
  {
    "residues": "ATCTTTAGGTAAAGATAGTTCAGTGAATGCAAAT",
    "targetUnderTest": "VDR homodimer (NR concentration 270 nM)",
    "PBM binding z-score": 0.742
  },
  {
    "residues": "CCTAGTTCGTCAGGAGGTCACACACCGGATATGA",
    "targetUnderTest": "VDR homodimer (NR concentration 270 nM)",
    "PBM binding z-score": 4.2
  },
  {
    "residues": "CCGACTGGGGCATAAGGTTACCCTAAGCCAGCCC",
    "targetUnderTest": "VDR homodimer (NR concentration 270 nM)",
    "PBM binding z-score": -0.217
  },
  {
    "residues": "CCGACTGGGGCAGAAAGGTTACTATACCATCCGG",
    "targetUnderTest": "VDR homodimer (NR concentration 270 nM)",
    "PBM binding z-score": -0.181
  },
  {
    "residues": "CAAACTAGGTCACAGATGTCAAAGTCCGTGCGTA",
    "targetUnderTest": "VDR homodimer (NR concentration 270 nM)",
    "PBM binding z-score": 1.91
  },
  {
    "residues": "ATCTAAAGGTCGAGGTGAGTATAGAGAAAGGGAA",
    "targetUnderTest": "VDR homodimer (NR concentration 270 nM)",
    "PBM binding z-score": 0.632
  },
  {
    "residues": "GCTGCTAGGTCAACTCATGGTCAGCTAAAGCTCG",
    "targetUnderTest": "VDR homodimer (NR concentration 270 nM)",
    "PBM binding z-score": 0.269
  },
  {
    "residues": "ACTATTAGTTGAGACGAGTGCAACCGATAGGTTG",
    "targetUnderTest": "VDR homodimer (NR concentration 270 nM)",
    "PBM binding z-score": 1.49
  },
  {
    "residues": "TAGCCTAGGTCATTAGGCCAGTATAGTACGCATC",
    "targetUnderTest": "VDR homodimer (NR concentration 270 nM)",
    "PBM binding z-score": 0.922
  },
  {
    "residues": "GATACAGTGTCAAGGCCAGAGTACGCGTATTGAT",
    "targetUnderTest": "VDR homodimer (NR concentration 270 nM)",
    "PBM binding z-score": 0.431
  },
  {
    "residues": "ATCTCTAGGTAAGACTCAGTTCACTGAAGAACGC",
    "targetUnderTest": "VDR homodimer (NR concentration 270 nM)",
    "PBM binding z-score": 2.32
  },
  {
    "residues": "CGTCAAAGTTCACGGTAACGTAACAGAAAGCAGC",
    "targetUnderTest": "VDR homodimer (NR concentration 270 nM)",
    "PBM binding z-score": 4.02
  },
  {
    "residues": "ATATGTAGGTTAGCTGGTGTCATTCAGACTAGGC",
    "targetUnderTest": "VDR homodimer (NR concentration 270 nM)",
    "PBM binding z-score": 0.617
  },
  {
    "residues": "GGATCGAGGGCAAAGTTGATAGCATCTGTCGACG",
    "targetUnderTest": "VDR homodimer (NR concentration 270 nM)",
    "PBM binding z-score": 1.94
  },
  {
    "residues": "GCTTACGGGTCAACGGTTATAGCATGAATAGAAT",
    "targetUnderTest": "VDR homodimer (NR concentration 270 nM)",
    "PBM binding z-score": 0.695
  },
  {
    "residues": "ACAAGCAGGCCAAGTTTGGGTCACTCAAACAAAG",
    "targetUnderTest": "VDR homodimer (NR concentration 270 nM)",
    "PBM binding z-score": -0.0153
  },
  {
    "residues": "GCTAGTTGGTTAGTAAAAGGTCACACACCGGTCG",
    "targetUnderTest": "VDR homodimer (NR concentration 270 nM)",
    "PBM binding z-score": 1.85
  },
  {
    "residues": "CTCGAAAGCTCGGTTGAGGTGAGTATACGGATAA",
    "targetUnderTest": "VDR homodimer (NR concentration 270 nM)",
    "PBM binding z-score": -0.293
  },
  {
    "residues": "TCTTGTAGATCCATAGAGGTTAAGAAAGTGCGCT",
    "targetUnderTest": "VDR homodimer (NR concentration 270 nM)",
    "PBM binding z-score": 0.319
  },
  {
    "residues": "GCATATAGGTAATACAAGATGAAAGTCCGATTGT",
    "targetUnderTest": "VDR homodimer (NR concentration 270 nM)",
    "PBM binding z-score": -0.117
  }
]
